The reported numbers originate from paper PMC3516615.

# tgt: T1, EphA2 SAM domain K945L/Y960N (human, UniProt P29317 897-976, K945L | Y960N)
# T1 sequence (looked up): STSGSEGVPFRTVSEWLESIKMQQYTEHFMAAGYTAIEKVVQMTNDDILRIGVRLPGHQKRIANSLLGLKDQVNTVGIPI
# measurement-description: ITC
measured-endpoint: Kd

binder SHIP2 SAM domain (wild type) (domain or fragment, human, UniProt O15357 1192-1258, looked up) RASGLGEAGMSAWLRAIGLERYEEGLVHNGWDDLEFLSDITEEDLEEAGVQDPAHKRLLLDTLQLSK , Kd observed: 1600 nM
